Entries and their Fraction Unbound (fu) and Coefficient of Variance (CV), Human Plasma
# Test system: human plasma
# run-description: Presaturation equilibrium dialysis, fraction unbound in human plasma
# Type: in vitro ADME
# measurement-conditions: 5 μM PFAS, 18 h, 37 °C, value (CV)

// known answers, use as guide
[
  {
    "compound": "O=S(=O)(O)CCC(F)(F)C(F)(F)C(F)(F)C(F)(F)C(F)(F)C(F)(F)F [6:2 FtS, 6:2 fluorotelomer sulfonate]",
    "measured": "0.0197(2%)"
  },
  {
    "compound": "O=C(O)C(F)(F)C(F)(F)C(F)(F)C(F)(F)C(F)(F)C(F)(F)C(F)(F)C(F)(F)F",
    "measured": "0.00187(3%)"
  },
  {
    "compound": "O=C(O)C(F)(F)C(F)(F)C(F)(F)C(F)(F)C(F)(F)C(F)(F)C(F)(F)C(F)(F)C(F)(F)F",
    "measured": "0.000618(9%)"
  },
  {
    "compound": "O=C(O)C(F)(F)C(F)(F)C(F)(F)C(F)(F)F",
    "measured": "0.0888(3%)"
  },
  {
    "compound": "O=C(O)C(F)(F)C(F)(F)C(F)(F)C(F)(F)C(F)(F)C(F)(F)C(F)(F)C(F)(F)C(F)(F)C(F)(F)F",
    "measured": "0.000419(24%)"
  }
]

Read the entry "O=C(O)C(F)(F)C(F)(F)C(F)(F)C(F)(F)C(F)(F)F" and write its reported Fraction Unbound (fu) and Coefficient of Variance (CV), Human Plasma.
0.038(6%)
